Reported self-aminoacylation by item:
# System: biotinyl-Phe-oxazolone
# METHOD DESCRIPTION: self-aminoacylation, catalytic enhancement (BFO) (fold over background); higher = more active; k-Seq, kA / k0A0; sequences stand for … in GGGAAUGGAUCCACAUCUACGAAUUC…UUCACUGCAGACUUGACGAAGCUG
Variants at the floor of the assay were thinned out.
Output: the number by itself.

Guide cases for self-aminoacylation, answers given:
> print(dat)
                              sequence.data  result.value
1  AUUCAUCUAGGUCAGCGGGUG [Fam2.2 aminoacylation ribozyme variant]          25.3
2  CCACACCUCCAGCAAUCGGUC [Fam1B.1 aminoacylation ribozyme variant]          1.64
3  AACUUUGCUAACAGUCGCAAG [Fam3.1 aminoacylation ribozyme variant]          2.06

Input: In one line, give reported self-aminoacylation of the entry GGACACUUCAAGCAAUCGGUC [Fam1B.1 aminoacylation ribozyme variant] .
Output: 26.7

Input: Input AAGUUUGCAAAUAGUAGCAAG [Fam3.1 aminoacylation ribozyme variant] , output reported self-aminoacylation.
Output: 1.62

Input: Fill in reported self-aminoacylation for this entry: AAGUUUUGUAAUAGUCGCAAG [Fam3.1 aminoacylation ribozyme variant]
Output: 2.1

Input: Quick one: give measured self-aminoacylation for AUUACCCCGGUCAUCGCGUGA [Fam2.1 aminoacylation ribozyme variant]
Output: 174

Input: For the sequence AUUACACUGGCCAUCGAGUGA [Fam2.1 aminoacylation ribozyme variant] , give its reported self-aminoacylation.
Output: 15.9

Input: Provide only the value of recorded self-aminoacylation for AAGUUUGAUAAUAGUCCCAAG [Fam3.1 aminoacylation ribozyme variant]
Output: 0.838

Hello, the source for this data is the supplement of paper PMC9233669, in case you need it.
